target: BCL-XL (Homo sapiens, UniProt Q07817); construct: endogenous in cells; host or cells: MOLT-4; test: Bcl-xL ELISA degradation in MOLT-4 cells, 6 h; assay type: cell-based
Sequence (Q07817 whole entry): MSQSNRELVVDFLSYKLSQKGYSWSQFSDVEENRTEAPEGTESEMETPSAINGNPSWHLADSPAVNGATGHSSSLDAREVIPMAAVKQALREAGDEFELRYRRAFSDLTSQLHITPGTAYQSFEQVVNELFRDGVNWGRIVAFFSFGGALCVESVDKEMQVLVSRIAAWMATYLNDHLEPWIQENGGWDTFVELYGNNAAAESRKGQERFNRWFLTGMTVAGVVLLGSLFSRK
Endpoint Label: Dmax

What Dmax value was documented for this compound, `Cc1ncsc1-c1ccc([C@H](C)NC(=O)[C@@H]2C[C@@H](O)CN2C(=O)[C@@H](NC(=O)c2ccc(N3CCC(S(=O)(=O)NC(=O)c4nc(N5CCc6cccc(C(=O)Nc7nc8ccccc8s7)c6C5)ccc4-c4cnn(CC5CCCCC5)c4C)CC3)cc2)C(C)(C)C)cc1` ?
> 75%

Here is the next compound: `Cc1ncsc1-c1ccc([C@H](C)NC(=O)[C@@H]2C[C@@H](O)CN2C(=O)[C@@H](c2cc(OCC3CCN(CCNC(=O)c4nc(N5CCc6cccc(C(=O)Nc7nc8ccccc8s7)c6C5)ccc4-c4cnn(CC5CCCCC5)c4C)CC3)no2)C(C)C)cc1`
50 to 75%

Another compound to check: `Cc1ncsc1-c1ccc([C@H](C)NC(=O)[C@@H]2C[C@@H](O)CN2C(=O)[C@@H](NC(=O)CCCCCS(=O)(=O)NC(=O)c2nc(N3CCc4cccc(C(=O)Nc5nc6ccccc6s5)c4C3)ccc2-c2cnn(CC3CCCCC3)c2C)C(C)(C)CCOP(=O)(O)O)cc1`
50 to 75%

Ok, now `C#Cc1ccc([C@H](CO)NC(=O)[C@@H]2C[C@@H](O)CN2C(=O)[C@@H](NC(=O)CCc2ccc(S(=O)(=O)NC(=O)c3nc(N4CCc5cccc(C(=O)Nc6nc7ccccc7s6)c5C4)ccc3-c3cnn(CC4CCCCC4)c3C)cc2)C(C)(C)C)cc1`
> 75%
